System: SK-OV-3 ovarian
Assay details: NCI-60 one-dose screen, 48 h
Condition summary: 10 µM unless noted
The panel holds about 83,000 compounds, 20% with a hit somewhere; the sample as a whole holds those more often. Activity calls are given as the source filed them. Rule for the calls: active = growth percent below 10; inactive = the rest.
Possible outcomes: true (active), false (inactive)

compound=CO/N=C(/C)c1ccc(NC(=O)CSc2nnc(-c3ccncc3)n2-c2ccccc2)cc1 qualitative_label=false
compound=COc1ccc2cc(C(=O)c3coc4ccc(O)cc34)ccc2c1 qualitative_label=false
compound=OCCNCCCOc1ccc2ncnc(Nc3ccc(Oc4cccc(C(F)(F)F)c4)c(Cl)c3)c2c1 qualitative_label=false
compound=COC(=O)c1n[nH]c2ccc3nc(-c4cn[nH]c4C(F)(F)F)c4c(c3c12)CCCC4 qualitative_label=false
compound=O=c1oc2ccccc2cc1C1=NN=C(SCc2ccccc2)SC1 qualitative_label=false
compound=CC1(C)c2[nH]c3ccccc3c2C[C@]2(C)[C@H]3CC=C4[C@@H]5C[C@@](C)(C(N)=O)CC[C@]5(C)CC[C@@]4(C)[C@]3(C)CC[C@@H]12 qualitative_label=false
compound=CCN(CC)CCOc1ccc(-c2c(-c3ccccc3)c(=O)oc3ccccc23)cc1 qualitative_label=false
compound=Cc1nc2c(=O)[nH]c(SCC(=O)Nc3cccc(F)c3)nc2[nH]c1=O qualitative_label=false
compound=CC(C)(C)[Si](C)(C)O[C@H]1C(=O)C=CN2CC=C[C@@H]12 qualitative_label=false
compound=O=C1/C(=C/c2ccccc2Br)COc2ccc(O)c(O)c21 qualitative_label=false
compound="CC1=C(CCC(C)N(C)Cc2ccc(OCCCN3CCCC3)cc2)C(C)(C)CCC1 (configuration not stated)" qualitative_label=false
compound=CC(C)(C)n1cc(-c2ccnc(NCCCNS(=O)(=O)c3ccc(F)cc3)c2)c(-c2cccc(F)c2)n1 qualitative_label=false
compound=C/C(Nc1ccc(Cl)c(Cl)c1)=C1\CCOC1=O qualitative_label=false
compound=Cc1nc2sc(C(=O)Nc3cccc(Cl)c3C)c(N)c2cc1C(=O)c1ccccc1 qualitative_label=true
compound="C=C1CC[C@@H]2[C@](C)(COC(C)=O)[C@H](OC(C)=O)CC[C@@]2(C)[C@@H]1CC(Sc1ccccc1)C1=CCOC1=O (some centres not stated)" qualitative_label=false
compound=COc1cc(/C=C\c2cc(/C=C\c3ccc(O)c(OC)c3)n(C(=O)COc3ccc(Cl)cc3Cl)n2)ccc1O qualitative_label=true
compound=CC(C)n1cnc2c(=S)nc[nH]c21 qualitative_label=true
compound="COc1cccc(CNc2ncnc3c2ncn3C2OC(CO)C(O)C2O)c1O (configuration not stated)" qualitative_label=true
compound=O=C(Nn1c2c(sc1=NCc1ccccc1)C(=O)c1ccccc1C2=O)c1cc2ccc1CCc1ccc(cc1)CC2 qualitative_label=false
compound=COc1cc2oc(-c3cccc(NC(=O)c4cccc(Br)c4)c3)cc(=O)c2c(OC)c1OC qualitative_label=false
compound=COC(=O)/C(CCC=C(C)C)=C1\[C@@H](OC(C)=O)C[C@@]2(C)[C@H]1C[C@@H](O)[C@H]1[C@@]3(C)CC[C@H](NCCN)[C@@H](C)[C@@H]3CC[C@@]12C qualitative_label=false
compound=COC(=O)/C=C1/SC(=Nc2ccc(C)cc2)N(CCc2c[nH]c3ccc(O)cc23)C1=O qualitative_label=false
compound=N#Cc1c(-c2ccc(Cl)cc2)nc(NN=Cc2cccc(O)c2)nc1N1CCOCC1 qualitative_label=false
compound=CC(C)(C)n1cc(-c2ccnc(NCCNS(=O)(=O)c3cccc(F)c3)c2)c(-c2ccccc2)n1 qualitative_label=false
compound=O=C(CCC(=O)N/N=C/c1ccccc1O)N/N=C/c1ccccc1O qualitative_label=false
compound="CN(Cc1ccc(C(F)(F)F)cc1)CC(O)C(=O)Nc1ccc(Cl)cc1 (configuration not stated)" qualitative_label=false
compound="O=C1CC(N2C(=O)/C(=C/C(Cl)=C\\c3ccc([N+](=O)[O-])cc3)SC2=S)C(=O)N1c1ccc(Cl)cc1 (configuration not stated)" qualitative_label=false

* * *

System: KM12 colon
Assay details: NCI-60 one-dose screen, 48 h (100 = growth as untreated, 0 = no growth, -100 = all killed)
Condition summary: 10 µM unless noted
About 83,000 compounds went through this panel and 20% of them were active in at least one assay; those are over-represented in the sample as a whole.
Property name: growth (%)

compound=O=C(c1ccc(-c2nc(CSc3nc4ccccc4s3)no2)cc1)N1CCSCC1 number=57.7
compound=CCCCNC(=O)Oc1ccc(/C(=C(/CC)Cc2ccccc2)c2ccc(OCCN3CCCCCC3)cc2)cc1 number=37.5
compound=CN1C(=O)/C(=C/c2ccc(C(=O)Nc3ncc(Cc4ccc(Cl)cc4)s3)cc2)SC1=S number=21.1
compound=CC(=O)c1cc(O)c2ccccc2c1O number=106
compound=CCCCCCCCn1ccc2cc(NC(=O)Cn3cc(CN4CCCCC4)nn3)ccc21 number=19
compound="COc1ccc(C(=O)C2C(c3ccc(OC)cc3)CN(C)C23C(=O)Nc2ccccc23)cc1 (centres undefined)" number=93.9
compound="O=C(CI)NC1Oc2ccccc2-c2oc(=O)c(-c3ccccc3)cc21 (centres undefined)" number=2.37
compound=Cc1ccc(Sc2nnc(/N=C3\C(=O)Nc4ccccc43)s2)cc1 number=98.1
compound=CCSc1nc(NC)c2cc(-c3ccc(C(F)(F)F)cc3)ccc2n1 number=103
compound=C1=C(N2CCCC2)CCC1 number=109
compound=Cc1cccnc1NC(=S)Nc1ncccc1C number=107
compound=C=CCn1cc(-c2nc3ccccc3s2)c2cc(-c3ccc4c5c(cccc35)C(=O)N(N)C4=O)ccc21 number=100
compound=COc1ccc(/C=C2\COc3ccc(O)cc3C2=O)c(OC)c1OC number=44.3
compound=CC/C(=C(/c1ccc(Cl)cc1)c1ccc(OCCN2CCCC2)cc1)c1ccc(OC)cc1 number=56
compound=CCOC(=O)Cn1c(O)c(N=Nc2ccc(S(N)(=O)=O)cc2)c2cc(Br)ccc21 number=70.7
compound=Cc1nc(-c2ccccc2)cc2c(O)c(C(=O)NN)[nH]c(=O)c12 number=115
compound=N#Cc1nc(-c2ccccc2)oc1S(=O)(=O)N1CCOCC1 number=97.8
compound=CN1CCN(Cc2ccc3c(NNC(=O)c4ccccc4)nc4cc(F)ccc4n23)CC1 number=20
compound=O=C(CSc1nc(-c2ccccc2)[nH]c1S(=O)(=O)c1ccccc1)NC1CC1 number=100

* * *

Tested on: NCI/ADR-RES ovarian
Assay details: NCI-60 one-dose screen, 48 h
Condition summary: 10 µM unless noted
About 83,000 compounds went through this panel and 20% of them were active in at least one assay; those are over-represented in the sample as a whole. Activity calls are given as the source filed them. How the source made its calls: active means growth percent below 10; inactive means the rest.
Possible outcomes: y = active, n = inactive

compound="CCOC(=O)CNP(=O)(OC[C@@H](Cc1ccccc1)NC(=O)c1cc2ccccc2s1)Oc1ccccc1 (some centres undefined)" qualitative_label=n
compound=O=C(Nc1ccc(-c2nc(N3CCOCC3)c3cccn3n2)cc1)Nc1cccnc1 qualitative_label=y
compound=CCN(CC)c1nc(SCc2ccccc2Cl)ncc1C qualitative_label=n
compound=CCN(C(=O)N1CCN(c2cc3c(cc2F)c(=O)c(C(=O)O)cn3C2CC2)CC1)c1nc(-c2ccc(Cl)cc2)cs1 qualitative_label=y
compound=CO[C@]12C=C/C(=C(/C(=O)OCc3cccnc3)C(=O)CCCCCCCC[C@@]3(OC)C=C/C(=C(/C(=O)OCc4cccnc4)C(=O)CCCCCCCC1)O3)O2 qualitative_label=n
compound=C=C(C)[C@@H]1CC[C@]2(C(=O)OC)CC[C@]3(C)[C@H](CC[C@@H]4[C@@]5(C)C/C(=C/NC(N)=S)C(=O)C(C)(C)[C@@H]5CC[C@]43C)[C@@H]12 qualitative_label=n
compound=Cc1cccc2c1NC(=O)C2(c1ccc(O)cc1)c1ccc(O)cc1 qualitative_label=n
compound=Cc1nnc(NC(=O)c2nc(S(=O)(=O)Cc3ccc(F)cc3)ncc2Cl)s1 qualitative_label=n
compound=COC(=O)c1ccc2c(c1)C(=O)c1c-2n(CCCN)c(=O)c2cc([N+](=O)[O-])ccc12 qualitative_label=y
compound=CC1(C)CCC(S(=O)(=O)c2ccc3c(c2)/C(=N\O)c2cc(S(=O)(=O)N4CCC(O)(c5cccc(C(F)(F)F)c5)CC4)ccc2-3)CC1 qualitative_label=n
compound="CCCCCCC1(C)NCCO1 (centres undefined)" qualitative_label=n
compound=CCOC(=O)c1c(NC(=O)c2ccc(C(C)C)cc2)sc2c(CN(C)C)c(O)ccc12 qualitative_label=n
compound=Cc1ccccc1Cn1cnc2ccc(-c3cc(NC(=O)c4ccc(NC5CCN(C)CC5)cc4)n[nH]3)cc21 qualitative_label=n
compound=CN(C)CC(=O)Nc1ccc2ncnc(Nc3ccc(Oc4cccc(C(F)(F)F)c4)c(Cl)c3)c2c1 qualitative_label=n
compound=COc1ccc(OC)c(C(=O)/C=C/c2cc3c(c(OC)c2OC)OCO3)c1 qualitative_label=n
compound=COc1ccc2cc(C(=O)c3coc4ccc(O)cc34)ccc2c1 qualitative_label=n
compound="N#CC1=C(N)Oc2c(sc3c(Br)cccc23)C1c1ccc(F)cc1 (centres undefined)" qualitative_label=y
compound=O=C(OCc1ccc2c(Cl)cc(Cl)c(O)c2n1)n1cncn1 qualitative_label=y
compound="C=C(CNCCc1ccc(O)cc1)[C@@H]1CC[C@]2(CO)CC[C@]3(C)[C@H](CC[C@@H]4[C@@]5(C)CCC(NCCO)C(C)(C)[C@@H]5CC[C@]43C)[C@@H]12 (some centres undefined)" qualitative_label=n
compound=C#Cc1cccc(Nc2ncnc3ccc(-c4cnc(N)nc4)cc23)c1 qualitative_label=n
compound=Cn1cc(-c2nonc2-c2c[nH]c3ccc(Br)cc23)c2cc(Br)ccc21 qualitative_label=n
compound=OCCOCCN(Cc1ccccn1)Cc1cc(I)cc(I)c1O qualitative_label=y
compound=CCOC(=O)c1cnc2ccccc2c1Cl qualitative_label=n
compound=CC(C)CCC[C@@H](C)[C@H]1CC[C@H]2[C@@H]3CC=C4C[C@@H](C(C(=O)O)C(=O)O)CC[C@]4(C)[C@H]3CC[C@]12C qualitative_label=y
